test system: K562 CRISPRi cells; assay: Perturb-seq pooled growth measurement (sgRNA counts, growth phenotype γ, relative activity); format: cell-based, human; details: γ relative to perfectly matched sgRNA (_00) of the same gene, day 5
Answer not fulfilled if relative_activity_day5 is under 1, and fulfilled if it is 1 or more.

Query :: Given RAN_ + _131356438.23-P1P2_03 (guide GGGGGTCGCTGCGCTTAGGG; listed as DNA, chemistry not fully specified) , state whether its relative_activity_day5 is at least 1.
Result :: fulfilled

Query :: Given HSPA9_ −_137911079.23-P1P2_02 (guide GGAGTTGCGCGATGCGGTGG; listed as DNA, chemistry not fully specified) , state whether its relative_activity_day5 is at least 1.
Result :: not fulfilled

----------
A collection of substances and their measured Perturb-seq pooled growth sgRNA counts, d10
system: K562 CRISPRi cells; experiment: Perturb-seq pooled growth measurement (sgRNA counts, growth phenotype γ, relative activity); assay type: cell-based, human; settings: sequencing read counts; 10 days of growth (day twelve after transduction)
Just the number, please, no unit after it.

Example entries begin here.
Query :: What measured Perturb-seq pooled growth sgRNA counts, d10 goes with DBR1_+_137893744.23-P1P2_08: sgRNA targeting DBR1, GTTTGCAGTAGTCTACACCC, SEQ ID NO: 82 (listed as DNA, chemistry not fully specified) ?
Result :: 15989

Query :: What measured Perturb-seq pooled growth sgRNA counts, d10 goes with POLR2H_+_184081251.23-P1P2_12: sgRNA targeting POLR2H, GGGGCCACGAGAGCAGGAGA, SEQ ID NO: 117 (listed as DNA, chemistry not fully specified) ?
Result :: 5996

New cases:
Query :: What measured Perturb-seq pooled growth sgRNA counts, d10 goes with HSPA5_+_128003624.23-P1P2_04: sgRNA targeting HSPA5, GAGCCGAGAAGGCGACGGTG, SEQ ID NO: 89 (listed as DNA, chemistry not fully specified) ?
Result :: 4282

Query :: What measured Perturb-seq pooled growth sgRNA counts, d10 goes with TUBB_+_30688126.23-P1_03: sgRNA targeting TUBB, GCGGCAGCAAGGTTCTGAGA, SEQ ID NO: 108 (listed as DNA, chemistry not fully specified) ?
Result :: 1221

Query :: What measured Perturb-seq pooled growth sgRNA counts, d10 goes with GATA1_−_48645022.23-P1P2_06: sgRNA targeting GATA1, GTGAGCTTGCGACATCCCCA, SEQ ID NO: 123 (listed as DNA, chemistry not fully specified) ?
Result :: 5489
